meta.source: the kinase profiling compilation of Christmann-Franck et al. (2016)

target under test: SGK3 (human) (UniProt Q96BR1)
Sequence (Q96BR1 whole entry, looked up): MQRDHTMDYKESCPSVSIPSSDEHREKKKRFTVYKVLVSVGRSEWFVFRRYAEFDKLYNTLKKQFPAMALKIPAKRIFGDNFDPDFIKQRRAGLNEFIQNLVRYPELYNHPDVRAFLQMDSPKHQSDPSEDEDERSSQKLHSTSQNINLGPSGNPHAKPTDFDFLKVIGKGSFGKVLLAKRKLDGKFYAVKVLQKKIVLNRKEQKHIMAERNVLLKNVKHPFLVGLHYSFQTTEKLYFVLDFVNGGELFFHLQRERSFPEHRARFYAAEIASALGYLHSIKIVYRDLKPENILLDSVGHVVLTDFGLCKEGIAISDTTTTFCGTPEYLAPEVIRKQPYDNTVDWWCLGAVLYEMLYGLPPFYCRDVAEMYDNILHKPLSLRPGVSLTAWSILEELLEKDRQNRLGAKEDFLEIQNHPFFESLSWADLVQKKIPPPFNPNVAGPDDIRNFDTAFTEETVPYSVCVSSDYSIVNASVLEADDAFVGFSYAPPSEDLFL
experimental details: split-luciferase competition binding
condition description: compound 10.0 µM
measured parameter: inhibition (%)

O=c1cc(N2CCOCC2)nc2c3ccccc3ccn12 0
O=C1Nc2ccc(I)cc2/C1=C/c1cc(Br)c(O)c(Br)c1 0
CC(C)[C@H](CO)Nc1nc(Nc2cccc(Cl)c2)c2ncn(C(C)C)c2n1 0
CC(C)(C)n1nc(-c2ccc(Cl)cc2)c2c(N)ncnc21 0
CO[C@@H]1[C@H](N(C)C(=O)c2ccccc2)C[C@H]2O[C@]1(C)n1c3ccccc3c3c4c(c5c6ccccc6n2c5c31)C(=O)NC4 43
